Consider the following compounds; for each one, report its zone of inhibition at 50 µg/mL.
# Tested on: Escherichia coli
# ASSAY NOTES: Antimicrobial activity against Escherichia coli NCIM 2068/ATCC 11105 at 50 ug/mL after 24 hrs by disc diffusion method
# Format: functional
# CONDITION SUMMARY: NCIM 2068/ATCC 11105, 24 h, read-out: DIZ
Use mm as the unit, but write only the number.

Query :: Consider the compound CN[C@@H]1[C@H](O[C@H]2[C@H](O[C@H]3[C@H](O)[C@@H](O)[C@H](N=C(N)N)[C@@H](O)[C@@H]3N=C(N)N)O[C@@H](C)[C@]2(O)C=O)O[C@@H](CO)[C@H](O)[C@H]1O [STREPTOMYCIN] and give its measured zone of inhibition at 50 µg/mL.
Result :: 23

Query :: Consider the compound CC1=C(C(=O)Nc2ccc(C)cc2)C(c2ccc[nH]2)C(C(=O)Nc2ccc(C)cc2)=C(C)N1 and give its measured zone of inhibition at 50 µg/mL.
Result :: 22

Query :: Consider the compound CC1=C(C(=O)Nc2ccc(C)cc2)C(c2ccccn2)C(C(=O)Nc2ccc(C)cc2)=C(C)N1 and give its measured zone of inhibition at 50 µg/mL.
Result :: 14

Query :: Consider the compound CN(C)[C@@H]1C(O)=C(C(N)=O)C(=O)[C@@]2(O)C(O)=C3C(=O)c4c(O)cccc4[C@@](C)(O)[C@H]3C[C@@H]12 [TETRACYCLINE] and give its measured zone of inhibition at 50 µg/mL.
Result :: 25

Query :: Consider the compound CCc1ccc(C2C(C(=O)Nc3ccccc3)=C(C)NC(C)=C2C(=O)Nc2ccccc2)cc1 and give its measured zone of inhibition at 50 µg/mL.
Result :: 15

Query :: Consider the compound CC1=C(C(=O)Nc2ccccc2)C(c2ccco2)C(C(=O)Nc2ccccc2)=C(C)N1 and give its measured zone of inhibition at 50 µg/mL.
Result :: 18

Query :: Consider the compound CC1=C(C(=O)Nc2ccccc2C)C(c2ccccn2)C(C(=O)Nc2ccccc2C)=C(C)N1 and give its measured zone of inhibition at 50 µg/mL.
Result :: 19

----------
# Test system: Mycobacterium tuberculosis
# ASSAY NOTES: Antimycobacterial activity against multidrug-susceptible Mycobacterium tuberculosis H37Rv ATCC 27294 after 4 weeks
# Format: functional
# CONDITION SUMMARY: H37Rv ATCC 27294, 672 h
MEASURED PROPERTY: MIC (µg/mL)
Use µg/mL as the unit, but write only the number.

Query :: Consider the molecule CC1=C(C(=O)Nc2ccccc2C)C(c2ccccn2)C(C(=O)Nc2ccccc2C)=C(C)N1 and give its measured MIC.
Result :: 25

Query :: Consider the molecule CC1=C(C(=O)Nc2ccc(C)cc2)C(c2ccc[nH]2)C(C(=O)Nc2ccc(C)cc2)=C(C)N1 and give its measured MIC.
Result :: 12.5

Query :: Consider the molecule NC(=O)c1cnccn1 [PYRAZINAMIDE] and give its measured MIC.
Result :: 32

----------
Consider the following molecules; for each one, report its zone of inhibition at 25 µg/mL.
# Tested on: Staphylococcus aureus
# ASSAY NOTES: Antimicrobial activity against Staphylococcus aureus NCIM 2079/ATCC 6538P at 25 ug/mL after 24 hrs by disc diffusion method
# Type: functional
# CONDITION SUMMARY: read-out: DIZ
Use mm as the unit, but write only the number.

Query :: Consider the molecule CCc1ccc(C2C(C(=O)Nc3ccccc3)=C(C)NC(C)=C2C(=O)Nc2ccccc2)cc1 and give its measured zone of inhibition at 25 µg/mL.
Result :: 11

Query :: Consider the molecule CC1=C(C(=O)Nc2ccc(C)cc2)C(c2ccccn2)C(C(=O)Nc2ccc(C)cc2)=C(C)N1 and give its measured zone of inhibition at 25 µg/mL.
Result :: 10

Query :: Consider the molecule CC1=C(C(=O)Nc2ccccc2C)C(c2ccccn2)C(C(=O)Nc2ccccc2C)=C(C)N1 and give its measured zone of inhibition at 25 µg/mL.
Result :: 12

Query :: Consider the molecule CC1=C(C(=O)Nc2ccc(C)cc2)C(c2ccc[nH]2)C(C(=O)Nc2ccc(C)cc2)=C(C)N1 and give its measured zone of inhibition at 25 µg/mL.
Result :: 11

Query :: Consider the molecule CC1=C(C(=O)Nc2ccccc2)C(c2ccco2)C(C(=O)Nc2ccccc2)=C(C)N1 and give its measured zone of inhibition at 25 µg/mL.
Result :: 12
